test system: HT-29; experiment: SRB colorimetric assay of cell growth and viability, HT-29; format: cell-based, human; conditions: read-out: LC50 (lethal concentration at 50%); HT-29 cells, 48 hours exposure, SRB
Where a SMILES comes first, the peptide text is derived from it. Bridges are numbered along the chain shown (N, C = ends). [ ]: non-standard residue; d: D form. The star is where a group is joined. d(aIle) = CC[C@H](C)[C@@H](N)C(=O)O; d(aThr) = C[C@@H](O)[C@@H](N)C(=O)O; Hexanoyl(5-Me) = CC(C)CCCC(=O)*; d(hCys) = N[C@H](CCS)C(=O)O; Orn = NCCC[C@H](N)C(=O)O; Dhb = C/C=C(\N)C(=O)O
Readout Type: CC50 (µM)
Record the value in µM, omitting the unit from your answer.

Hello, please tell me recorded CC50 for this one: C/C=C1\NC(=O)[C@H](Cc2ccccc2)NC(=O)[C@@H](C(C)C)NC(=O)[C@@H]([C@@H](C)CC)NC(=O)[C@H](NC(=O)[C@@H](CCS)NC(=O)[C@H](CCCN)NC(=O)[C@H]2CCCN2C(=O)[C@@H](CCS)NC(=O)[C@@H](NC(=O)[C@@H](NC(=O)[C@H](NC(=O)CCCC(C)C)C(C)C)[C@@H](C)O)C(C)C)[C@@H](C)OC(=O)[C@H](C(C)C)NC1=O [Compound 109, [D-homoCys^7, D-homoCys^10]-KF] ({Hexanoyl(5-Me)}-[dV]TV[d(hCys)][dP][Orn][d(hCys)][d(aThr)][d(aIle)][dV]F[Dhb]V; ester 8-C) 6.26

Hello, please tell me recorded CC50 for this one: C/C=C1\NC(=O)[C@H](Cc2ccccc2)NC(=O)[C@@H](C(C)C)NC(=O)[C@@H]([C@@H](C)CC)NC(=O)[C@H](NC(=O)[C@@H](CS)NC(=O)[C@H](CCCN)NC(=O)[C@H]2CCCN2C(=O)[C@@H](CS)NC(=O)[C@@H](NC(=O)[C@@H](NC(=O)[C@H](NC(=O)CCCC(C)C)C(C)C)[C@@H](C)O)C(C)C)[C@@H](C)OC(=O)[C@H](C(C)C)NC1=O [Compound 108, [D-Cys^7, D-Cys^10]-KF] ({Hexanoyl(5-Me)}-[dV]TV[dC][dP][Orn][dC][d(aThr)][d(aIle)][dV]F[Dhb]V; ester 8-C) 6.53

Hello, please tell me recorded CC50 for this one: C/C=C1\NC(=O)[C@H](Cc2ccccc2)NC(=O)[C@@H](C(C)C)NC(=O)[C@@H]([C@@H](C)CC)NC(=O)[C@H](NC(=O)[C@H](NC(=O)[C@H](CCCN)NC(=O)[C@H]2CCCN2C(=O)[C@H](NC(=O)[C@@H](NC(=O)[C@@H](NC(=O)[C@H](NC(=O)CCCC(C)C)C(C)C)[C@@H](C)O)C(C)C)C(C)C)[C@@H](C)CC)[C@@H](C)OC(=O)[C@@H](C(C)C)NC1=O [Compound 110, [D-Val^1]-KF] 0.691

Hello, please tell me recorded CC50 for this one: C/C=C1\NC(=O)[C@H](Cc2ccccc2)NC(=O)[C@@H](C(C)C)NC(=O)[C@@H]([C@@H](C)CC)NC(=O)[C@H](NC(=O)[C@H](NC(=O)[C@H](CCCN)NC(=O)[C@H]2CCCN2C(=O)[C@H](NC(=O)[C@@H](NC(=O)[C@@H](NC(=O)[C@H](NC(=O)[C@]23CCC(C)(C)C[C@H]2C2=CC[C@@H]4[C@@]5(C)CC[C@H](O)C(C)(C)[C@@H]5CC[C@@]4(C)[C@]2(C)CC3)C(C)C)[C@@H](C)O)C(C)C)C(C)C)[C@@H](C)CC)[C@@H](C)OC(=O)[C@H](C(C)C)NC1=O [Compound 102, [AO^14]-KF] 5.54
